Consider the following compounds; for each one, report its pIC50.
- Assayed target: IκBα ubiquitinating enzyme (SCF complex: ROC1, Cullin1, Skp1, His-TrCP1; with E1, UbcH5b) (Homo sapiens, UniProt P62877+P63208+Q13616+Q9Y297)
- Construct: His (polyhistidine); made in house; host or cells: insect cells (baculovirus) for the SCF complex and His-E1; E. coli for His-UBCH5b
- Sequence (Q9Y297 whole entry): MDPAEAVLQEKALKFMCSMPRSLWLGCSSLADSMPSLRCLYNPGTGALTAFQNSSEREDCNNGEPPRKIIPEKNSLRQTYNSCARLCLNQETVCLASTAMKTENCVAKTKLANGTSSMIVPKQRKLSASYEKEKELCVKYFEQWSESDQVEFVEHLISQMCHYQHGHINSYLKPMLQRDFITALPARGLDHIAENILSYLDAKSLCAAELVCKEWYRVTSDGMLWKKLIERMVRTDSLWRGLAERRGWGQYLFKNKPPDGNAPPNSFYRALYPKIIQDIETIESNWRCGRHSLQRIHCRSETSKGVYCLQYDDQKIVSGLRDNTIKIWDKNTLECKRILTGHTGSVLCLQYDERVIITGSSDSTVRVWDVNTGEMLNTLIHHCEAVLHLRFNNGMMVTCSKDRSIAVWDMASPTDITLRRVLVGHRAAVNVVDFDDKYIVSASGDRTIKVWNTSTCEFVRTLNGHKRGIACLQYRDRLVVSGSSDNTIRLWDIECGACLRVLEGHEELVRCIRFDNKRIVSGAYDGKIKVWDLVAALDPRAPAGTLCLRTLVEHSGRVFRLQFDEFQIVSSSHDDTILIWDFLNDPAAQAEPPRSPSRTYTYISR
- Sequence (Q13616 whole entry): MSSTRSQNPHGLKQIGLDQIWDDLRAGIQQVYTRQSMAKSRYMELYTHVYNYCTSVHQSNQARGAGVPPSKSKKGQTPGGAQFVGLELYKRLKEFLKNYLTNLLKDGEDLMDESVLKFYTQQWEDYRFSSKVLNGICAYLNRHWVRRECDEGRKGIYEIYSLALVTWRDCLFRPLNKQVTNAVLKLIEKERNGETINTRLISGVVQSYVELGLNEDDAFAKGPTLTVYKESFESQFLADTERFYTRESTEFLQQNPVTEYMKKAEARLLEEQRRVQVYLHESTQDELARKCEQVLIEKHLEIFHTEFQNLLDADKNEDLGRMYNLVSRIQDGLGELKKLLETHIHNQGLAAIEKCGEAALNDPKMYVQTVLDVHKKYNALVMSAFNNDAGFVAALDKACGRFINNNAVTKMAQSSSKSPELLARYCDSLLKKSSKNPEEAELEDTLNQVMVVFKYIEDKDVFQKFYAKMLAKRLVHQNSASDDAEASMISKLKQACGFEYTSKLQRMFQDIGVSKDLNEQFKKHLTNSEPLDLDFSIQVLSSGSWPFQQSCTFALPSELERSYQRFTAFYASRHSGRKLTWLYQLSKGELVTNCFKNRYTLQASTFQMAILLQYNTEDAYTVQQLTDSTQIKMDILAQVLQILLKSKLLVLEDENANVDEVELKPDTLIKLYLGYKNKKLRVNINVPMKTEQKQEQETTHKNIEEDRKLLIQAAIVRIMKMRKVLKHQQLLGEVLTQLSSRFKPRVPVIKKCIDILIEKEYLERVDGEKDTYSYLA
- Sequence (P63208 whole entry): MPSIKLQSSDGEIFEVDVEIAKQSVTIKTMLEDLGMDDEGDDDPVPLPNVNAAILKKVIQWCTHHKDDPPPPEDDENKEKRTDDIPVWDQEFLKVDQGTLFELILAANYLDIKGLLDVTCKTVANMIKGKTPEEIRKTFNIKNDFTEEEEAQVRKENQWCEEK
- Sequence (P62877 whole entry): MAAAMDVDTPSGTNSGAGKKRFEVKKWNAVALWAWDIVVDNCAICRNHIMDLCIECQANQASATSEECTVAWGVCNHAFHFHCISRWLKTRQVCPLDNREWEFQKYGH
- Assay protocol: Measurement of ubiquitinating enzyme activity (IκBα ubiquitination, time-resolved fluorescence with Eu(K)-labeled ubiquitin and XL665-labeled anti-GST antibody)
- Assay type: biochemical
pIC50: −log10 of the molar value.

What the record says about COc1cc(C=C2C(=O)N(c3ccc(C(=O)O)cc3)N=C2c2ccc(F)cc2)ccc1OCc1ccccc1 : pIC50 is > 5.00

What the record says about COC(=O)N1CCN(c2ccc(C=C3C(=O)N(c4ccccc4)N=C3c3ccc(OC)c(OC)c3)cc2)CC1 : pIC50 is 4.70 to 5.00

What the record says about COC(=O)N1CCN(c2ccc(C=C3C(=O)N(c4ccccc4)N=C3Cc3ccccc3)cc2)CC1 : pIC50 is 4.70 to 5.00

What the record says about COC(=O)c1ccc(COc2ccc(C=C3C(=O)N(c4ccc(C(=O)O)cc4)N=C3C)cc2OC)cc1 : pIC50 is > 5.00

What the record says about O=C(O)c1ccc(N2N=C(c3ccoc3)C(=Cc3ccc(N4CCN(c5ccccc5)CC4)cc3)C2=O)cc1 : pIC50 is > 5.00

What the record says about CCCCC1=NN(c2ccc(C(=O)O)cc2)C(=O)C1=Cc1ccc(O)c(OC)c1 : pIC50 is 4.70 to 5.00

What the record says about COC(=O)N1CCN(c2ccc(C=C3C(=O)N(c4ccc(C(=O)O)cc4)N=C3C3CC3)cc2)CC1 : pIC50 is > 5.00

Source: patent EP1900728A1
